For each entry below, report its cytotoxicity at 10 µM value.
# Method notes: Toxicity liver stage against HepG2, at 10uM
# Assay type: cell-based
# Design: test concentration 10 uM, cell line HepG2-A16-CD81EGFP
# Experimental context: human, HepG2-A16-CD81EGFP cells; read-out: INHIBITION
Write the answer as a number in %, unit excluded.

Reported cytotoxicity at 10 µM ( O=S(=O)(CC1CCCCO1)Nc1cnn(CC(F)F)c1 (stereo not given) ) = -3.09

Noted for CC(=O)Nc1ccc(CN2CCc3[nH]cnc3C2c2ccc(C)o2)cc1 (stereo not given) : its cytotoxicity at 10 µM reads 4.93

// recorded cytotoxicity at 10 µM for CC(=O)N1CCC2(CCCN2Cc2cnn(C)c2)CC1 : -2.27

Entry CC(=O)N1CCCC(c2ccc(CO)c(-c3c(C)noc3C)n2)C1 (stereo not given) — recorded cytotoxicity at 10 µM = -4.09

For reference, reported cytotoxicity at 10 µM for O=C(c1ccccc1-c1ccccc1)N1C[C@@H]2CNC[C@]2(C(=O)O)C1 stands at -0.265

* * *

# Method notes: Toxicity liver stage against HepG2, at 10uM
# Assay type: cell-based
# Parameters: test concentration 10 uM, cell line HepG2-A16-CD81EGFP
# Experimental context: human, HepG2-A16-CD81EGFP cells; read-out: INHIBITION
Endpoint label: cytotoxicity at 10 µM (%)
Only the number, expressed in %, is required.

Sure, the documented cytotoxicity at 10 µM for Cc1cc(CN2CCOCS2(=O)=O)ccc1F is -8.02

// sample Cn1ccnc1CN1CCCC1c1noc(C2CC2)n1 (stereo not given) , its cytotoxicity at 10 µM was 0.265

O=C(NC1CCCCC1)N1CCC(n2cc(-c3ccccn3)nn2)CC1 has a reported cytotoxicity at 10 µM of 4.49

Lab note: Cc1nc(CN2CCN(C(=O)CCc3cccc(Cl)c3)CC2)no1 gave cytotoxicity at 10 µM of 2.93

The recorded cytotoxicity at 10 µM for entry CC(C)c1nc(Cn2cncn2)n(-c2ccccn2)n1 equals -1.03

Reported cytotoxicity at 10 µM ( Cc1cc(C(=O)Nc2cccn(Cc3ccccc3)c2=O)no1 ) = -1.55

Noted for CC1COCCN1C(=O)c1ccc(=O)n(Cc2ccccc2)n1 (stereo not given) : its cytotoxicity at 10 µM reads -1.19

Short answer for Cc1nn(C)c(N2CCOCC2)c1CNC1COc2ccccc2C1 (stereo not given) : cytotoxicity at 10 µM was -17.9

Per the record, Cc1c(F)cc(C(=O)O)cc1S(=O)(=O)Nc1ccc(F)c(C#N)c1 has cytotoxicity at 10 µM of -6.02

Notebook: O=C([C@@H]1CCO[C@@H]2CCN(Cc3cccnc3)C[C@H]21)N1CCCCO1 , cytotoxicity at 10 µM read as -1.17

FC(F)(F)c1nc(NC2CCCC2)c2ccccc2n1 yielded cytotoxicity at 10 µM of 15.8

Query CCCn1cc(NC(=O)Nc2ccc(F)c(C(=O)NC)c2)cn1 yields cytotoxicity at 10 µM of 6.98

The recorded cytotoxicity at 10 µM for entry Cc1cnn(CC(C)NCC(=O)Nc2ccc(Cl)cn2)c1 (stereo not given) equals 6.05

The compound listed as O=C(NC1CC1)[C@@H]1CCO[C@@H]2CCN(CC3CCC3)C[C@H]21 has a reported cytotoxicity at 10 µM of -111

For this compound ( Cc1ccc(N2CCN(CC3CC3)C3(CCN(C(C)C)CC3)C2=O)cn1 ), measured cytotoxicity at 10 µM is 16

Noted for CCc1noc(C)c1-c1nc(Cc2cccs2)nn1C1CCN(C)CC1 : its cytotoxicity at 10 µM reads -17.3

Lab note: measured cytotoxicity at 10 µM of CN1CCC2(CC1)CN(C(=O)c1cccnc1)Cc1ccccc12 was -66.2

Lookup result for CC(C)CN1CCC2(CCN(Cc3ccc(F)cc3)CC2)C1=O ; measured cytotoxicity at 10 µM: 5.71

Record Cc1ccc(NC2CCN(C(=O)C(C(C)C)n3cncn3)CC2)nn1 (stereo not given) , field cytotoxicity at 10 µM: -3.01

cytotoxicity at 10 µM reported for this compound Cc1nn(C)c2c(=O)n(Cc3ccc(Cl)cc3)nnc12 : -3.02

cytotoxicity at 10 µM reading for CCN1CCOCC2(CCCN(C(=O)c3ccncc3F)C2)C1 (stereo not given) : -3.16

Looking up Cc1cnn(CC2CCCN2Cc2ncc(-c3ccccc3)o2)c1 (stereo not given) , I found its cytotoxicity at 10 µM recorded as -8.4

// recorded cytotoxicity at 10 µM for CC(=O)c1cccc(NC(=O)NCCc2nnc[nH]2)c1 : -39.1

The compound listed as CN(Cc1ccc(F)cc1)[C@@H]1CN(S(C)(=O)=O)C[C@H]1O has a reported cytotoxicity at 10 µM of -3.22

get_value(item= CCC(NC(=O)c1ccco1)c1nc(C(F)(F)F)cs1 (stereo not given) , readout=cytotoxicity at 10 µM) returns -0.183

Please fill in: cytotoxicity at 10 µM reported for Cc1ccc(NCC2(O)CCNCC2)cc1C = 2.27

# cytotoxicity at 10 µM (compound: CC(C)CCCNC(=O)Nc1ccc(C(N)=O)c(Cl)c1 ) is 4.69

Cc1cc(C)n(CC2CN(CCOc3ccccc3F)CCO2)n1 (stereo not given) has a reported cytotoxicity at 10 µM of -6.73

Given item O=C(c1cnccn1)N1CCC2(CC1)CCN(Cc1ccccn1)C2=O , the value recorded as its cytotoxicity at 10 µM is 0.108

Entry C[C@@H]1CC[C@@H](C)N1C(=O)c1cc(COc2ccccc2)[nH]n1 , cytotoxicity at 10 µM reported as 4.82

* * *

Consider the following compounds; for each one, report its cytotoxicity at 10 µM.
# Method notes: Toxicity liver stage against HepG2, at 10uM
# Assay type: cell-based
# Design: test concentration 10 uM, cell line HepG2-A16-CD81EGFP
# Experimental context: human, HepG2-A16-CD81EGFP cells; read-out: INHIBITION
// note: answer is a bare numeric in %

The compound listed as COC(=O)N1CCC(Nc2cccc(F)c2C#N)CC1 shows cytotoxicity at 10 µM equal to 18.1

Lab note: CC1CN(CC(=O)Nc2ccncc2)CCN1c1nccs1 (centres undefined) gave cytotoxicity at 10 µM of 29.5

Record Cc1nc(CNC(=O)NC2CCN(c3ncccn3)CC2)cs1 . Reported cytotoxicity at 10 µM: -141

Please fill in: cytotoxicity at 10 µM reported for CCCS(=O)(=O)N1CCC2(CC1)CC(=O)N(CCCc1ccccc1)C2 = 8.35

get_value(item= CC(C)NC(=O)CC1[C@H]2CN(C(=O)Cc3ccccn3)C[C@@H]12 (some centres undefined) , readout=cytotoxicity at 10 µM) returns 12

For record COCc1nc2ncc3c(=O)n(-c4ccc(OC)cc4)ccc3n2n1 the listed cytotoxicity at 10 µM is 8.1

Reported cytotoxicity at 10 µM for Cc1cnn(C2CCCN(C(=O)c3cccc4c3OCO4)C2)c1 (centres undefined) was -2.23

# cytotoxicity at 10 µM (compound: COc1cccc2c3c(c(=O)[nH]c12)CC(C)(C)O3 ) is -6.1

Record Cn1ccc2c(-c3ccc(NCCO)nn3)ccnc21 . Reported cytotoxicity at 10 µM: -5.56

cytotoxicity at 10 µM measured on CNS(=O)(=O)c1cccc(C(C)NCc2cccc(OC)c2)c1 (centres undefined) = -12.3

The recorded cytotoxicity at 10 µM for CN1CCN(C2COC3(CCN(Cc4cccs4)CC3)C2)CC1 (centres undefined) is -84.5

get_value(item= Cc1nc[nH]c1-c1nccn1CCN1CCOC1=O , readout=cytotoxicity at 10 µM) returns -5.58

Recorded cytotoxicity at 10 µM (compound Cc1ncsc1-c1nc(Cc2cccs2)nn1C1CCN(C)CC1 ): -4.51

In plain terms, O=C(CCS(=O)(=O)C1CCCC1)NCc1ccccc1Cn1cncn1 has a documented cytotoxicity at 10 µM of -4.9

The recorded cytotoxicity at 10 µM for N#Cc1cccc(NC(=O)N2CCC3(CCC(=O)N(C4CC4)C3)CC2)c1 is 3.9

Notebook: Cn1nnnc1SCCNC1CCN(c2ccc3c(c2)OCO3)CC1 , cytotoxicity at 10 µM read as 3.07

Measured cytotoxicity at 10 µM, O=c1[nH]ncc(NCCOc2ccc3c(c2)OCO3)c1Cl : 3.1

So, COc1ccccc1C(NC(=O)CN(C)C(C)C)c1noc(C)n1 (centres undefined) ? Its cytotoxicity at 10 µM was -3.21

So, Cc1ccc(CN2CC[C@H]3OCC[C@@]3(C(=O)N3CCCO3)C2)o1 ? Its cytotoxicity at 10 µM was 8.83

Lab note: COC(=O)CSc1nnc(CCNC(=O)OC(C)(C)C)o1 gave cytotoxicity at 10 µM of 4.34

// sample O=C(C1CCOC1)N1CCC(Cn2cc(-c3ccsc3)nn2)CC1 (centres undefined) , its cytotoxicity at 10 µM was -0.039

So for O=C(CCn1ccnc1)N1CC[C@@H](c2ccc3ccccc3c2)[C@H](O)C1 , the logged cytotoxicity at 10 µM turned out to be -0.288

Entry under test: O=c1[nH]c(-c2cccnc2)nc2c1CCN(S(=O)(=O)N1CCCC1)C2 . Its cytotoxicity at 10 µM was 0.384

Entry under test: CC(Nc1nc2c(cnn2C)c(=O)[nH]1)c1ccccn1 (centres undefined) . Its cytotoxicity at 10 µM was 13.3

The reported cytotoxicity at 10 µM of the compound Cc1cc(CN2C[C@@H]3COC[C@]3(CNC(=O)c3ccco3)C2)no1 was -71.1

The recorded cytotoxicity at 10 µM for entry Cc1ccc(F)cc1-c1ccc(N)nc1 equals -143

Looking up CC(=O)N1CCC2(CC1)CNc1c(F)cccc12 , I found its cytotoxicity at 10 µM recorded as 4.79

Query CN(Cc1cc2n(n1)CCN(C(=O)[C@H]1CCCO1)C2)Cc1nccs1 yields cytotoxicity at 10 µM of 7.92

get_value(item= O=c1[nH]c(CCN2CCCC2Cn2cncn2)nc2ccccc12 (centres undefined) , readout=cytotoxicity at 10 µM) returns -5.48

Reported cytotoxicity at 10 µM of CC(Cn1cccn1)NC(=O)Nc1nccs1 (centres undefined) : -9.55

The reported cytotoxicity at 10 µM of the compound CCCn1cc(C(=O)NCCCC(N)=O)c2ccccc21 was 6.13

So for CCC1CN(C(=O)c2ccccc2C#N)CCN1C(C)C (centres undefined) , the logged cytotoxicity at 10 µM turned out to be -0.772

Per the record, CCc1n[nH]c(C2CN(CCCOc3cccc(C)c3)CCO2)n1 (centres undefined) has cytotoxicity at 10 µM of -15

cytotoxicity at 10 µM recorded for this compound, COCCN1CCN(Cc2c(C)noc2C)Cc2ccc(C)nc21 , is 3.47

For COc1cc(Nc2c(C#N)c(=O)n(C)c(=O)n2C)cc(OC)c1 the compound record lists cytotoxicity at 10 µM as -3.65

The reported cytotoxicity at 10 µM of the compound Cn1cc(CN2CCN3C[C@H](Oc4cccnc4)C[C@H]3C2)cn1 was 3.07

Sure, the documented cytotoxicity at 10 µM for CCOc1ccc(Cl)c(C(=O)N2CCN(c3cnccn3)CC2)n1 is -4.89

// CC(CNC(=O)OC(C)(C)C)N(C)C(=O)COc1ccccc1C#N (centres undefined) : cytotoxicity at 10 µM value = 1.39

For reference, reported cytotoxicity at 10 µM for CCCn1ncc(C(=O)NC2CCN(C3CCOCC3)CC2)c1C stands at 5.66
